- protocolDescription: Stability in medium collected from human HEK293T cells assessed as intact compound level at 1 mM incubated up to 48 hrs at 37 degC
- Format: ADME, cell-based, HEK-293T
- assaySetup: read-out: Stability

compound	units	remaining at 48 h, 1000 µM
Nc1ncnc2c1ncn2[C@@H]1O[C@H](COP(=O)(S)OCC(COP(=O)(S)OC[C@H]2O[C@@H](n3cnc4c(N)ncnc43)[C@H](O)[C@@H]2O)OP(=O)(O)S)[C@@H](O)[C@H]1O (mixture of isomers)	%	97
Nc1ncnc2c1ncn2[C@@H]1O[C@H](COP(=O)(S)OCC(COP(=O)(S)OC[C@H]2O[C@@H](n3cnc4c(N)ncnc43)[C@H](O)[C@@H]2O)(COP(=O)(S)OC[C@H]2O[C@@H](n3cnc4c(N)ncnc43)[C@H](O)[C@@H]2O)COP(=O)(S)OC[C@H]2O[C@@H](n3cnc4c(N)ncnc43)[C@H](O)[C@@H]2O)[C@@H](O)[C@H]1O (mixture of isomers)	%	97
Nc1ncnc2c1ncn2[C@@H]1O[C@H](COP(=O)(S)OCC(COP(=O)(O)S)(COP(=O)(S)OC[C@H]2O[C@@H](n3cnc4c(N)ncnc43)[C@H](O)[C@@H]2O)COP(=O)(S)OC[C@H]2O[C@@H](n3cnc4c(N)ncnc43)[C@H](O)[C@@H]2O)[C@@H](O)[C@H]1O (mixture of isomers)	%	97

Origin of values: ChEMBL document CHEMBL1811807
